Data credit: patent US20250195521A1

Biological target: NRAS Q61K binding to BRAF RBD (Homo sapiens (Human), UniProt P01111+P62937, Q61K)
Sequence (P01111 whole entry Q61K, one chain of several): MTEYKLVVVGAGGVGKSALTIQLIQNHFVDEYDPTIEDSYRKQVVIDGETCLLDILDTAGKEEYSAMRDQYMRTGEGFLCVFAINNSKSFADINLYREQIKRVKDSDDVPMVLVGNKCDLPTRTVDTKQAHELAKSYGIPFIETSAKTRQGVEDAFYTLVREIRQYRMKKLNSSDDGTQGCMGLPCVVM
Assay: Ras-Raf disruption/FRET/MOA assay, NRAS Q61K
readoutKind: IC50

Past entries and their recorded results:
C=CC(=O)N1CC[C@H](C(=O)C2CC[C@H](C)[C@H]2C(=O)N[C@H]2Cc3cccc(c3)-c3ccc4c(c3)c(c(-c3cccnc3[C@H](C)OC)n4CC)CC(C)(C)COC(=O)[C@@H]3CCCN(N3)C2=O)C1 (some centres unmarked) [Compound A494]	1 to 10 µM
CCn1c(-c2cccnc2[C@H](C)OC)c2c3cc(ccc31)-c1csc(n1)C[C@H](NC(=O)C1(COC3CN(C(=O)C#CC(C)(C)N4CCC4)C3)CC1)C(=O)N1CCC[C@H](N1)C(=O)OCC(C)(C)C2 [Compound A362]	> 10 µM
CC[C@@H](COC1CN(C(=O)C#CC(C)(C)N(C)C)C1)C(=O)N[C@H]1Cc2nc(cs2)-c2ccc3c(c2)c(c(-c2cccnc2[C@H](C)OC)n3CC)CC(C)(C)COC(=O)[C@@H]2CCCN(N2)C1=O (atropisomer, axis not shown) [Compound A705]	1 to 10 µM
CCn1c(-c2cccnc2[C@H](C)OC)c2c3cc(ccc31)-c1cnc(o1)C[C@H](NC(=O)[C@@H](COC1CN(C(=O)C#CC(C)(C)N(C)C)C1)C(C)C)C(=O)N1CCC[C@H](N1)C(=O)OCCC2 (atropisomer, axis not shown) [Compound A649]	> 10 µM

Now let's try a different one.
Exam item: Fill in: IC50 on NRAS Q61K binding to BRAF RBD (Homo sapiens (Human), UniProt P01111+P62937, Q61K), entry CCn1c(-c2cccnc2[C@H](C)OC)c2c3cc(ccc31)-c1csc(n1)C[C@H](NC(=O)[C@H](C(C)C)N(C)C(=O)C1CCN(C(=O)/C=C/CN(C)C)C[C@@H]1C)C(=O)N1CCC[C@H](N1)C(=O)OCC(C)(C)C2 (some centres unmarked) [Compound A709]
Marked response: 0.01 to 0.1 µM

###

Molecular target: KRAS G12V binding to BRAF RBD (Homo sapiens (Human), UniProt P01116+P62937, G12V)
Sequence (P01116 other isoform, or with tags, fused parts or gaps G12V): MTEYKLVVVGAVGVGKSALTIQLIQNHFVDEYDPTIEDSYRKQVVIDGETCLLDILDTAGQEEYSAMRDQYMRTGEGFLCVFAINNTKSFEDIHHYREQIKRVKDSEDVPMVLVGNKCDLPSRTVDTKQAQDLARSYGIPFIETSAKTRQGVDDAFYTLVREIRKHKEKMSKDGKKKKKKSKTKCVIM
Sequence (P62937 whole entry): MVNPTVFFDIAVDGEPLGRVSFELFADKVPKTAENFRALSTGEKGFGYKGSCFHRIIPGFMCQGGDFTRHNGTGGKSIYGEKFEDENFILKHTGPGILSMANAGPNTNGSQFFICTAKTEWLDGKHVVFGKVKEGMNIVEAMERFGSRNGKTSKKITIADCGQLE
Experiment: Ras-Raf disruption/FRET/MOA assay, KRAS G12V
Format: biochemical
Settings: read-out: KRAS G12V FRET IC50
readoutKind: IC50

CCn1c(-c2cccnc2[C@H](C)OC)c2c3cc(ccc31)-c1csc(n1)C[C@H](NC(=O)[C@H](C(C)C)N(C)C(=O)N1CCN3C(=O)CN(C)C[C@H]3C1)C(=O)N1CCC[C@H](N1)C(=O)OCC(C)(C)C2	10 to 100 nM

Exam item: Write down IC50 measured for item CCn1c(-c2cccnc2[C@H](C)OC)c2c3cc(ccc31)-c1csc(n1)C[C@H](NC(=O)[C@H](C(C)C)N(C)C(=O)N1CC(N3CCOCC3)C1)C(=O)N1CCC[C@H](N1)C(=O)OCC(C)(C)C2
Marked response: 10 to 100 nM

###

Target: KRAS G12C (Homo sapiens (Human), UniProt P01116+P62937, G12C)
Sequence (P01116-2 other isoform, or with tags, fused parts or gaps G12C, one chain of several): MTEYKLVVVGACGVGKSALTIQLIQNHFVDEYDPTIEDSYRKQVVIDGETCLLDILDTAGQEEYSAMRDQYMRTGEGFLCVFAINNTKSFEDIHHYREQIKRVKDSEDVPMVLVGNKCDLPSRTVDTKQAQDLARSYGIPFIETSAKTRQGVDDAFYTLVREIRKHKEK
Test: Ras-Raf disruption/FRET/MOA assay (BRAF RBD, Cyclophilin A)
Format: biochemical
Conditions: read-out: KRAS G12C FRET IC50
# IC50 values compiled below

Exam item: State IC50 on KRAS G12C (Homo sapiens (Human), UniProt P01116+P62937, G12C). Entry: CCn1c(-c2cccnc2[C@H](C)OC)c2c3cc(ccc31)-c1csc(n1)C[C@H](NC(=O)[C@H](C(C)C)N(C)C(=O)[C@H]1[C@@H]3CNC[C@@H]31)C(=O)N1CCC[C@H](N1)C(=O)OCC(C)(C)C2
Marked response: 1000 to 10000 nM

Exam item: Specify IC50 for CCn1c(-c2cnccc2COC)c2c3cc(ccc31)-c1cc(O)cc(c1)C[C@H](NC(=O)[C@H](C(C)C)N(C)C(=O)CN/C(N)=N/C#N)C(=O)N1CCC[C@H](N1)C(=O)OCC(C)(C)C2 , system KRAS G12C (Homo sapiens (Human), UniProt P01116+P62937, G12C).
Marked response: 10 to 100 nM

Exam item: Write IC50 of CCn1c(-c2cccnc2[C@H](C)OC)c2c3cc(ccc31)-c1cc(O)cc(c1)C[C@H](NC(=O)C1CCC3C1C3(F)F)C(=O)N1CCC[C@H](N1)C(=O)OCC(C)(C)C2 (stereo partly drawn) ; system used: KRAS G12C (Homo sapiens (Human), UniProt P01116+P62937, G12C)
Marked response: 1000 to 10000 nM

Exam item: Lab note: KRAS G12C (Homo sapiens (Human), UniProt P01116+P62937, G12C) assay, enter IC50 for CCn1c(-c2cc(N3CCN(C)CC3)cnc2[C@H](C)OC)c2c3cc(ccc31)-c1csc(n1)C[C@H](NC(=O)[C@H](C(C)C)N(C)C(=O)[C@@H]1OCC[C@@H]1c1ccncc1)C(=O)N1CCC[C@H](N1)C(=O)OCC(C)(C)C2 here
Marked response: 10 to 100 nM

###

# maps each entry to its pIC50
Target: NRAS G12C (Homo sapiens (Human), UniProt P01111+P62937, G12C)
Sequence (P01111 whole entry G12C, one chain of several): as the sequence (P01111 whole entry Q61K, one chain of several) above, with G12C, K61Q counted along it
Test: Ras-Raf disruption/FRET/MOA assay (BRAF RBD, Cyclophilin A)
Format: biochemical
Conditions: read-out: NRAS G12C FRET data IC50
pIC50: −log10 of the molar value.

Please review the entries below; each comes with its answer.
CCn1c(-c2cccnc2[C@H](C)OC)c2c3cc(ccc31)-c1csc(n1)C[C@H](NC(=O)[C@H](C(C)C)N(C)C(=O)N1[C@H](C)COC[C@H]1C)C(=O)N1CCC[C@H](N1)C(=O)OCC(C)(C)C2	7.00 to 8.00
CCn1c(-c2cnccc2COC)c2c3cc(ccc31)-c1cc(O)cc(c1)C[C@H](NC(=O)[C@H](C(C)C)N(C)C(=O)C1(C)COC1)C(=O)N1CCC[C@H](N1)C(=O)OCC(C)(C)C2	5.00 to 6.00
CCn1c(-c2cccnc2[C@H](C)OC)c2c3cc(ccc31)-c1cc(O)cc(c1)C[C@H](NC(=O)[C@H](C(C)C)N(C)C(=O)[C@@H]1OCC[C@H]1c1ccccc1)C(=O)N1CCC[C@H](N1)C(=O)OCC(C)(C)C2	7.00 to 8.00
CCn1c(-c2cccnc2[C@H](C)OC)c2c3cc(ccc31)-c1cccc(c1)C[C@H](NC(=O)[C@H](C(C)C)N(C)C(=O)[C@H]1CCNC1)C(=O)N1CCC[C@H](N1)C(=O)OCC(C)(C)C2	5.00 to 6.00
CCn1c(-c2cccnc2[C@H](C)OC)c2c3cc(ccc31)-c1csc(n1)C[C@H](NC(=O)[C@H](C(C)C)N(C)C(=O)N1CCC[C@H]1c1ccccc1)C(=O)N1CCC[C@H](N1)C(=O)OCC(C)(C)C2	5.00 to 6.00

Exam item: Given CCn1c(-c2cccnc2[C@H](C)OC)c2c3cc(ccc31)-c1cc(O)cc(c1)C[C@H](NC(=O)[C@H](C(C)C)N(C)C(=O)[C@@H]1COC[C@@H]1N)C(=O)N1CCC[C@H](N1)C(=O)OCC(C)(C)C2 , respond with its pIC50.
Marked response: 7.00 to 8.00

Exam item: Respond only with pIC50 recorded for CCn1c(-c2cccnc2[C@H](C)OC)c2c3cc(ccc31)-c1csc(n1)C[C@H](NC(=O)[C@H](C(C)C)N(C)C(=O)N1CCC1C(=O)O)C(=O)N1CCC[C@H](N1)C(=O)OCC(C)(C)C2 (stereo partly drawn)
Marked response: 5.00 to 6.00

Exam item: Specify measured pIC50 for CCn1c(-c2cccnc2[C@H](C)OC)c2c3cc(ccc31)-c1csc(n1)C[C@H](NC(=O)[C@H](C(C)C)N1CCCC1=O)C(=O)N1CCC[C@H](N1)C(=O)OCC(C)(C)C2 .
Marked response: 5.00 to 6.00

Exam item: Tell me its pIC50 given CCn1c(-c2cccnc2[C@H](C)OC)c2c3cc(ccc31)-c1csc(n1)C[C@H](NC(=O)[C@H](C(C)C)N(C)C(=O)N1CCOC3(COC3)C1)C(=O)N1CCC[C@H](N1)C(=O)OCC(C)(C)C2 as the entry.
Marked response: 7.00 to 8.00

###

Target: KRAS Q61H (Homo sapiens (Human), UniProt P01116+P62937, Q61H)
Sequence (P01116 other isoform, or with tags, fused parts or gaps Q61H, one chain of several): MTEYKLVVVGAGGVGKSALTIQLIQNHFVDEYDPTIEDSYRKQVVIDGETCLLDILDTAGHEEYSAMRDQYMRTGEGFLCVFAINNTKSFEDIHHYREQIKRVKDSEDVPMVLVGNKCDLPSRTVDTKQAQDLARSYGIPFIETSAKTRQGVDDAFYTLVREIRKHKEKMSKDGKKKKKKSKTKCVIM
Experiment: Ras-Raf disruption/FRET/MOA assay (BRAF RBD, Cyclophilin A)
Type: biochemical
pIC50: −log10 of the molar value.
readoutKind: pIC50

Completed entries (count: 3):
CCn1c(-c2cccnc2[C@H](C)OC)c2c3cc(ccc31)-c1cc(O)cc(c1)C[C@H](NC(=O)[C@@H]1[C@@H](C)CCCN1C(C)=O)C(=O)N1CCC[C@H](N1)C(=O)OCC(C)(C)C2	7.00 to 8.00
CCn1c(-c2cccnc2[C@H](C)OC)c2c3cc(ccc31)-c1csc(n1)C[C@H](NC(=O)[C@H](C(C)C)N(C)C(=O)N1CCO[C@@]3(CCN(C)C3)C1)C(=O)N1CCC[C@H](N1)C(=O)OCC(C)(C)C2	6.00 to 7.00
CCn1c(-c2cccnc2[C@H](C)OC)c2c3cc(ccc31)-c1csc(n1)C[C@H](NC(=O)[C@H](C(C)C)N(C)C(=O)N1CCO[C@@H](CN(C)C)C1)C(=O)N1CCC[C@H](N1)C(=O)OCC(C)(C)C2	7.00 to 8.00

Exam item: Provide one value: measured pIC50 of CCn1c(-c2cccnc2[C@H](C)OC)c2c3cc(ccc31)-c1csc(n1)C[C@H](NC(=O)[C@H](C(C)C)N(C)C(=O)N1C[C@H]3CN(C)CC[C@H]31)C(=O)N1CCC[C@H](N1)C(=O)OCC(C)(C)C2
Marked response: 6.00 to 7.00
